Entry source: patent US12390472B2

Target: EZH2 enzyme complex (Homo sapiens (Human), UniProt Q15910)
Sequence (Q15910 whole entry): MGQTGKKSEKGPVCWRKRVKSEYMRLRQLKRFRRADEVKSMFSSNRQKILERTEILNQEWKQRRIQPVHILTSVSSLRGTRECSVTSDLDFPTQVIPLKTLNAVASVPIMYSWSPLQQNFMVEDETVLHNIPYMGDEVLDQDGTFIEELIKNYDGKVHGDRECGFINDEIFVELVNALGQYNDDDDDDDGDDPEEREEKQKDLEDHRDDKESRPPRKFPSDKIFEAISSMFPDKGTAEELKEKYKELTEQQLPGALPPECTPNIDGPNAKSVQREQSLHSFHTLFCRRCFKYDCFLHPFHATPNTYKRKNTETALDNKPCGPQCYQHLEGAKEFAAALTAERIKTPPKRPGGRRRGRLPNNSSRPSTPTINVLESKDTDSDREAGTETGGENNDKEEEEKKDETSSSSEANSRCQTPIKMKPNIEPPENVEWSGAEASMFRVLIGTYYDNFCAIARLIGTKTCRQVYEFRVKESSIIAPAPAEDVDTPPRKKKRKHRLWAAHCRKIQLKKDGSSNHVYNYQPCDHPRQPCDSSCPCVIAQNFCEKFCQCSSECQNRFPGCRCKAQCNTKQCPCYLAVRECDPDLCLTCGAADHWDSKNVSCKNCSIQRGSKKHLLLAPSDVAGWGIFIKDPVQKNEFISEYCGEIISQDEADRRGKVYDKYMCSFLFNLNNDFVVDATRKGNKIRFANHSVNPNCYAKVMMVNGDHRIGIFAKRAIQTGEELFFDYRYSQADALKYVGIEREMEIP
Sequence (O75530 whole entry partner): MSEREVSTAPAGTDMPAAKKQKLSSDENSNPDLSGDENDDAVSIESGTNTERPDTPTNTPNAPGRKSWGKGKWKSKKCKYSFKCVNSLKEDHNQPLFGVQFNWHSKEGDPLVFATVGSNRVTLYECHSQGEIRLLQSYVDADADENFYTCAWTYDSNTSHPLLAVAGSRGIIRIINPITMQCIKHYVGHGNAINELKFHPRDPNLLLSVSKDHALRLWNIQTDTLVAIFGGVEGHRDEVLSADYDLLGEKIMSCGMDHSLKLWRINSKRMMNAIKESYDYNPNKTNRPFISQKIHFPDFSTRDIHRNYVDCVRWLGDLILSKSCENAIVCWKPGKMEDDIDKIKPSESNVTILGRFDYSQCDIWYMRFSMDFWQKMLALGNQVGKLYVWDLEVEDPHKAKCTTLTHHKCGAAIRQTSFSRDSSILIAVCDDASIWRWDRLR
Sequence (Q15022 whole entry partner): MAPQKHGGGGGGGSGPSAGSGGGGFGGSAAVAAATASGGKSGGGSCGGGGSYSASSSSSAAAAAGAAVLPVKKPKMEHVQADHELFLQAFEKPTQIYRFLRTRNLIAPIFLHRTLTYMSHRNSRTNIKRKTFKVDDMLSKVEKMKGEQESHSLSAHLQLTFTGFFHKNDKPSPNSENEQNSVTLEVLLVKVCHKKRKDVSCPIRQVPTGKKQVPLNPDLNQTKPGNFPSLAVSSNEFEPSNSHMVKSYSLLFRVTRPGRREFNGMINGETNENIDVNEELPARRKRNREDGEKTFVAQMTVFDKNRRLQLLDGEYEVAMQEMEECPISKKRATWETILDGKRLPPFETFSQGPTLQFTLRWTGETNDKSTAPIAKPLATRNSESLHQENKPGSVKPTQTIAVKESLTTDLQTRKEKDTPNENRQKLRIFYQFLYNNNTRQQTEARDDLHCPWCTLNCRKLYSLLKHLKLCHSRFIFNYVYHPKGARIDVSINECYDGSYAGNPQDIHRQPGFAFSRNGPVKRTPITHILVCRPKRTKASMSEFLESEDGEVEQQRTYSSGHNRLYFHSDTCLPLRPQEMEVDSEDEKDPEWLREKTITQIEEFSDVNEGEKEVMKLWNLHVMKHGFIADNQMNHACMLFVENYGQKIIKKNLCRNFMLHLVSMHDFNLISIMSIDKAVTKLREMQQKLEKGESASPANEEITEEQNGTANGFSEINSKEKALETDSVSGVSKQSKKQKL
Assay: Test on EZH2 inhibitory activity (TR-FRET)
Details: EZH2 enzyme complex 25 ng/uL, histone H3 peptide 4 uM, SAM 2 uM, 300 min; read-out: IC50 of EZH2 inhibition

compound | IC50
CCN(c1cc(O[C@H]2C[C@@H](N3CCC(C)CC3)C2)cc(C(=O)NCc2c(C)cc(C)[nH]c2=O)c1C)C1CCOCC1 | 10 to 100 nM
CCN(c1cc(O[C@H]2C[C@H](N3C[C@@H](C)O[C@@H](C)C3)C2)cc(C(=O)NCc2c(C)cc(C)[nH]c2=O)c1C)C1CCC(F)(F)CC1 | 10 to 100 nM
CCN(c1cc(O[C@H]2C[C@@H](CN3CCOCC3)C2)cc(C(=O)NCc2c(C)cc(C)[nH]c2=O)c1C)C1CCOCC1 | 10 to 100 nM
CCN(c1cc(O[C@H]2C[C@H](N3CCC(C)CC3)C2)cc(C(=O)NCc2c(C)cc(C)[nH]c2=O)c1C)C1CCOCC1 | < 10 nM
CCN(c1cc(O[C@H]2C[C@H](N3CCN(C(C)C)CC3)C2)cc(C(=O)NCc2c(C)cc(C)[nH]c2=O)c1C)C1CCOCC1 | 10 to 100 nM
CCN(c1cc(C2CC2CN2CCOCC2)cc(C(=O)NCc2c(C)cc(C)[nH]c2=O)c1C)[C@H]1CC[C@H](N(C)CCOC)CC1 (some centres unmarked) | 10 to 100 nM
CCN(c1cc(O[C@H]2C[C@H](N3CCN(C)CC3)C2)cc(C(=O)NCc2c(C)cc(C)[nH]c2=O)c1C)C1CCOCC1 | 10 to 100 nM
CCN(c1cc(SC2CCC2)cc(C(=O)NCc2c(C)cc(C)[nH]c2=O)c1C)C1CCOCC1 | 10 to 100 nM
CCN(c1cc(O[C@H]2C[C@H](CN3CCOCC3)C2)cc(C(=O)NCc2c(C)cc(C)[nH]c2=O)c1C)C1CCOCC1 | 10 to 100 nM
CCN(c1cc(O[C@H]2C[C@H](N3C[C@@H](C)O[C@@H](C)C3)C2)cc(C(=O)NCc2c(C)cc(C)[nH]c2=O)c1C)C1CCOC1 (some centres unmarked) | < 10 nM
CCN(c1cc(O[C@H]2C[C@@H](N3CCN(C)CC3)C2)cc(C(=O)NCc2c(C)cc(C)[nH]c2=O)c1C)C1CCOCC1 | 10 to 100 nM
CCN(c1cc(O[C@H]2C[C@H](N3C[C@@H](C)O[C@@H](C)C3)C2)cc(C(=O)NCc2c(C)cc(C)[nH]c2=O)c1C)C1CCOCC1 | 10 to 100 nM
Cc1cc(C)c(CNC(=O)c2cc(O[C@H]3C[C@H](N4C[C@@H](C)O[C@@H](C)C4)C3)cc(NC3CCOCC3)c2C)c(=O)[nH]1 | > 1000 nM
CCN(c1cc(O[C@H]2C[C@H](N3CCNCC3)C2)cc(C(=O)NCc2c(C)cc(C)[nH]c2=O)c1C)C1CCOCC1 | 10 to 100 nM
Cc1cc(C)c(CNC(=O)c2cc(O[C@H]3C[C@H](N4C[C@@H](C)O[C@@H](C)C4)C3)cc(NC3CCOC3)c2C)c(=O)[nH]1 (some centres unmarked) | > 1000 nM
CCN(c1cc(O[C@H]2C[C@@H](N3CCNCC3)C2)cc(C(=O)NCc2c(C)cc(C)[nH]c2=O)c1C)C1CCOCC1 | < 10 nM
CCN(c1cc(O[C@H]2C[C@@H](N3C[C@@H](C)O[C@@H](C)C3)C2)cc(C(=O)NCc2c(C)cc(C)[nH]c2=O)c1C)[C@H]1C[C@@H](C)O[C@@H](C)C1 | 100 to 1000 nM
CCN(c1cc(O[C@H]2C[C@H](N3CCC(C)CC3)C2)cc(C(=O)NCc2c(C)cc(C(F)(F)F)[nH]c2=O)c1Cl)C1CCOCC1 | > 1000 nM
CCN(c1cc(OC2CCC2)cc(C(=O)NCc2c(C)cc(C)[nH]c2=O)c1Cl)C1CCOCC1 | 10 to 100 nM
CCN(c1cc(OC2CC(C)(C)C2)cc(C(=O)NCc2c(C)cc(C)[nH]c2=O)c1C)C1CCOCC1 | 10 to 100 nM
CCN(c1cc(S(=O)(=O)C2CCC2)cc(C(=O)NCc2c(C)cc(C)[nH]c2=O)c1C)C1CCOCC1 | 100 to 1000 nM
CCN(c1cc(O[C@H]2C[C@H](N3C[C@@H](C)O[C@@H](C)C3)C2)cc(C(=O)NCc2c(C)cc(C)[nH]c2=O)c1C)[C@@H]1C[C@@H](C)O[C@@H](C)C1 | 100 to 1000 nM
CCN(c1cc(O[C@H]2C[C@H](N3CCC(C)CC3)C2)cc(C(=O)NCc2c(C)cc(C)[nH]c2=O)c1Cl)C1CCOCC1 | < 10 nM
CCN(c1cc(O[C@H]2C[C@H](N3CC4CC(C3)O4)C2)cc(C(=O)NCc2c(C)cc(C)[nH]c2=O)c1Cl)C1CCOCC1 | 10 to 100 nM
CCN(c1cc(C2CC2CN2CCCCC2)cc(C(=O)NCc2c(C)cc(C)[nH]c2=O)c1C)C1CCOCC1 (centres unmarked) | 10 to 100 nM
CCN(c1cc(OC2CC(F)(F)C2)cc(C(=O)NCc2c(C)cc(C)[nH]c2=O)c1C)C1CCOCC1 | 10 to 100 nM
